Reference for the values: patent US20050158709A1

# System: R13273
# experiment-summary: EC50 against viral strain R13273
# Format: cell-based, HIV
# details: Human immunodeficiency virus 1
pEC50: −log10 of the molar value.
endpoint-label: pEC50

Q. Item under review: Cc1cccc(C)c1OCC(=O)N[C@@H](Cc1ccccc1)[C@@H](O)C[C@H](Cc1ccccc1)NC(=O)[C@H](C(C)C)N1CCCNC1=O . Reported pEC50?
A. ~5.70
